// data source = ChEMBL document CHEMBL3988442

tested on: Wolbachia pipientis; experiment: Anti-Wolbachia Cell-Based Screen; format: functional; parameters: scale not given: in the data most compounds retested in dose-response had high values; details: 5 µM
Screen size: about 48,000 compounds; about 13,000 (27%) showed an effect of 50% or more. The list shows a part of the results.
MEASUREMENT TYPE: Percent Effect (%)
# value in %; strip the unit string

Below are worked cases with known answers.
CS(=O)(=O)NC[C@@H]1OC[C@H]2CN(Cc3ccsc3)CC[C@H]21.O=C(O)C(F)(F)F = 83.99
Cc1nn(C)c(N2CCOCC2)c1CNC(C)c1ccco1 (stereo not drawn) = -14.65

[ask] Please look at this compound and report its Percent Effect: `CCN(CC)C(=O)c1cnc(Sc2nccn2C)c(Cl)c1`
[reply] -3.996

[ask] Please look at this compound and report its Percent Effect: `Cc1nccn1CCN(C)C(=O)c1cn(CC2CCCCC2)nn1`
[reply] 121.2

[ask] Please look at this compound and report its Percent Effect: `c1ccc(Cn2cc(CNc3ncnc4c3CCNCC4)cn2)cc1`
[reply] 100.8

[ask] Please look at this compound and report its Percent Effect: COCC(=O)N1CCN(c2cc(C)nc(C3CCCN3C(C)=O)c2)CC1 (stereo not drawn)
[reply] 105.4

[ask] Please look at this compound and report its Percent Effect: Cc1nn(C)c(N2CCOCC2)c1CNCC1CCS(=O)(=O)C1 (stereo not drawn)
[reply] -15.3

[ask] Please look at this compound and report its Percent Effect: `CCCc1nnc(C(=O)N(C)Cc2cnc3ccccn23)o1`
[reply] -16.11

[ask] Please look at this compound and report its Percent Effect: Cc1cc(-c2nn(C)c(Cl)c2CN2Cc3ccccc3C(O)C2)no1 (stereo not drawn)
[reply] 9.326

----------
test system: Wolbachia pipientis; assay: Anti-Wolbachia Cell-Based Screen; type: functional; set-up: scale not given: in the data most compounds retested in dose-response had high values; conditions: 5 µM
The whole screen tested about 48,000 compounds, of which about 13,000 (27%) showed an effect of 50% or more. This is one part of the list.
Listing of entries alongside the reported Percent Effect.
# value in %; strip the unit string

CCc1ncc(C(=O)N2CCC(O)(CN3CCOCC3)C(C)(C)C2)cn1 (stereo not given) = 21.42
CC(C)c1nccn1CCCNC(=O)c1ccc(-c2cncnc2)nc1 = -0.1776
Cc1c(C(=O)N2CCN(C)[C@@H]3CS(=O)(=O)C[C@@H]32)[nH]c2ccc(F)cc12 = 22.59
O=C(N[C@@H]1CC[C@@H](N2CCCC2)[C@@H]1O)c1cc2ccccc2[nH]1 = 132.3
O=C(NC1CCCCNC1=O)c1cc2ccccc2[nH]c1=O (stereo not given) = 20.65

[ask] Please look at this compound and report its Percent Effect: CCn1cc(CN(C)C(=O)C(c2ccccc2C)N(C)C)cn1 (stereo not given)
[reply] 1.037

[ask] Please look at this compound and report its Percent Effect: `O=C([C@H]1C[C@H]2OCC[C@H]2N(C(=O)C2CCOCC2)C1)N1CCCCO1`
[reply] -4.541

[ask] Please look at this compound and report its Percent Effect: `CC(=O)N[C@@H]1CN(C(=O)c2cc3ccccc3[nH]2)C[C@H]1c1ccc(C)o1`
[reply] 5.04

[ask] Please look at this compound and report its Percent Effect: CCc1c(C)nn(C)c1NC(=O)N1CCCOC(Cn2cccn2)C1 (stereo not given)
[reply] -2.471

[ask] Please look at this compound and report its Percent Effect: `O=C(N[C@@H]1CCNC[C@H]1O)c1ccc(F)c(Cl)c1`
[reply] -18.82

----------
system: Wolbachia pipientis; assay: Anti-Wolbachia Cell-Based Screen; format: functional; design: scale not given: in the data most compounds retested in dose-response had high values; settings: 5 µM
About 13,000 (27%) of roughly 48,000 compounds showed an effect of 50% or more. This is one part of the list.
Listing of entries alongside the reported Percent Effect.
# value in %; strip the unit string

COc1cc2ccccc2cc1C(=O)N1CCCC(c2nncn2C)C1 (configuration not stated) = 138.9
COc1ccccc1-n1cc(C(=O)NCCCn2nc(C)nc2C)cn1 = 95.25
CN(C)C(=O)CO[C@@H]1CC[C@H]2[C@H]1OCCN2c1ncc(F)cn1.O=C(O)C(F)(F)F = 112.4

[ask] Please look at this compound and report its Percent Effect: `CS(=O)(=O)NC[C@H]1Cn2c(-c3ccccc3)cnc2CO1`
[reply] -16.47

[ask] Please look at this compound and report its Percent Effect: `CCOc1ccc(N(CCC#N)C(=O)c2ccc(SC)nc2)cc1`
[reply] -11.41

----------
Listing of entries alongside the reported Percent Effect.
system: Wolbachia pipientis; experiment: Anti-Wolbachia Cell-Based Screen; assay type: functional; set-up: scale not given: in the data most compounds retested in dose-response had high values; conditions: 5 µM
Among all 48,000 compounds or so, about 13,000 (27%) showed an effect of 50% or more. Some of the results follow.
# value in %; strip the unit string

CC(O)CN1CCN(C(=O)c2ccc(N(C)C)nn2)CC1 (configuration not stated) = 2.216
CN(C)c1ccc(C(=O)N2CCN(Cc3cscn3)CC2)cn1 = 116
CC(C)[C@H](Nc1nc(C2CCCC2)nc2c1cnn2C)C(N)=O = -0.02427
Cl.NCC1CCCCN1C(=O)Cc1cccc(Br)c1 (configuration not stated) = -8.019
COc1ncc(C2CC(=O)NCc3nc4ccccn4c32)cn1 (configuration not stated) = 2.979
Cc1c(C(=O)N2CCC(C(O)c3ccc(Cl)cc3)CC2)cnn1C (configuration not stated) = -1.505

// moving on: another record for Percent Effect
[ask] Please look at this molecule and report its Percent Effect: O=C(C1CCCO1)N1CCC(n2cc(-c3ccc(F)cc3)nn2)CC1 (configuration not stated)
[reply] -2.259

----------
tested on: Wolbachia pipientis; assay: Anti-Wolbachia Cell-Based Screen; assay type: functional; parameters: scale not given: in the data most compounds retested in dose-response had high values; conditions: 5 µM
In all, about 48,000 compounds went through this assay and about 13,000 (27%) showed an effect of 50% or more. The list shows a part of the results.
Listing of entries alongside the reported Percent Effect.
# value in %; strip the unit string

Below are worked cases with known answers.
COc1ccc(CN(Cc2ccccn2)Cc2cncn2C)cc1.O=C(O)CC(O)(CC(=O)O)C(=O)O = 130.6
Nc1nccnc1C(=O)N(Cc1ccccc1O)CC1CCCO1 (stereo not given) = -11.08
COc1ccc(CN(CC2CCCO2)c2nc3c(s2)c(C)nn3C)cc1 (stereo not given) = -25.43
Cc1cc(CN(Cc2cccs2)CC2CCCO2)no1 (stereo not given) = -7.251

[ask] Using Wolbachia pipientis as the test system, report measured Percent Effect of CCn1cncc1CN(Cc1ccc(OC)cc1OC)CC1CCCO1.O=C(O)CC(O)(CC(=O)O)C(=O)O (stereo not given) .
[reply] 91.73

----------
system: Wolbachia pipientis; assay: Anti-Wolbachia Cell-Based Screen; type: functional; design: scale not given: in the data most compounds retested in dose-response had high values; conditions: 5 µM
The whole screen tested about 48,000 compounds, of which about 13,000 (27%) showed an effect of 50% or more. The list shows a part of the results.
MEASUREMENT TYPE: Percent Effect (%)
# value in %; strip the unit string

COc1ccccc1[C@@H]1CN(Cc2cc(C(C)(C)C)[nH]n2)C[C@H]1C(=O)O = -3.476

[ask] Using Wolbachia pipientis as the test system, report measured Percent Effect of `Cc1nc(CN2CCN(c3ncnc4ccccc34)CC2)no1` .
[reply] -20.36

----------
Listing of entries alongside the reported Percent Effect.
test system: Wolbachia pipientis; test: Anti-Wolbachia Cell-Based Screen; type: functional; set-up: scale not given: in the data most compounds retested in dose-response had high values; conditions: 5 µM
About 13,000 (27%) of roughly 48,000 compounds showed an effect of 50% or more. The list shows a part of the results.
# value in %; strip the unit string

Cc1ccc(C(CNCc2c[nH]nc2C)N(C)C)cc1.Cl (stereo not drawn) = -30.61

[ask] Please look at this molecule and report its Percent Effect: `Fc1ccc(CN2CCC3(CCN(Cc4nccs4)CC3)C2)cc1.O=C(O)C(F)(F)F.O=C(O)C(F)(F)F`
[reply] -8.456

[ask] Please look at this molecule and report its Percent Effect: `CC(C)NC(=O)NCCCc1cc(N)n(-c2ccccc2)n1`
[reply] -14.76

[ask] Please look at this molecule and report its Percent Effect: COc1cc(N2CCC3(CC(=O)N(Cc4csc(C)n4)C3)C2)ncn1 (stereo not drawn)
[reply] 116.5

[ask] Please look at this molecule and report its Percent Effect: COc1cccc(N2CC3(CCN(c4cc(OC)ncn4)C3)CC2=O)c1 (stereo not drawn)
[reply] -36.15

[ask] Please look at this molecule and report its Percent Effect: `CCCNC(=O)COc1cc(C)c2c(C)nn(-c3ccc(C)cc3)c2n1`
[reply] 109.7

[ask] Please look at this molecule and report its Percent Effect: `CCCNC(=O)COc1ccc(C)cn1`
[reply] 4.173

[ask] Please look at this molecule and report its Percent Effect: COc1cccc(CCCNC(=O)N2CCC(O)(C(F)(F)F)C2)c1 (stereo not drawn)
[reply] -22.68

[ask] Please look at this molecule and report its Percent Effect: CSC(C)C(=O)NCCCc1cc(N)n(-c2ccccc2)n1 (stereo not drawn)
[reply] 6.591

[ask] Please look at this molecule and report its Percent Effect: `Cc1cc(C)c2c(OCC(=O)NC(C)C)nn(C)c2n1`
[reply] -14.3
